recordedMetric: melting point

O=C(O)CNC(=O)c1nc(Cl)c2cc(Cl)c(Cl)cc2c1O    265 °C
CCOC(=O)c1cnn(-c2cccc(S(=O)(=O)N(C)C)n2)c1N    197 to 198 °C
Cn1c(=O)c(-c2c(Cl)cccc2Cl)cc2cnc(Nc3cccc(C(=O)O)c3)nc21    > 300 °C
CC(C)(C)c1ccc(/C=C/C(=O)Nc2ccc3c(ccn3CCO)c2)cc1    182 °C
CN1NC(=O)CSC1=Nc1ccc(Cl)c(Cl)c1    118 to 120 °C

Briefly, melting point measured for Nc1ccccc1-c1ccc(Br)cc1N : 61 to 62 °C

Briefly, melting point measured for COc1cc(Cn2cc(CCC(=O)O)c(-c3ccccc3)c2)cc(OCc2csc(-c3cnccn3)n2)c1 : 111 to 112 °C

Briefly, melting point measured for CSc1cc2ccccc2cc1C=O : 53.5 to 54.5 °C
